Data origin: patent US20090221624A1

# System: EBOV minigenome
# PROTOCOL TEXT: microbe, parasite or virus in culture
# Assay type: cell-based, Ebola virus
# CONDITION INFO: read-out: EBOV EC50
MEASURED PARAMETER: EC50 (µM)
Report the figure in µM without appending any unit label.

Request: State recorded EC50 with EBOV minigenome, entry COc1ccccc1Nc1cc(C)nc2c(C)c(C)cc(N)c12 [Compound 79] , no comment.
Response: 43.5

---

# PROTOCOL TEXT: in vitro
# CONDITION INFO: EBOV CC50
Reported CC50 is given for each of the following molecules.
Report the figure in µM without appending any unit label.

// below: answered molecules
>>> assay_value("CCOc1ccc2nc(C)cc(Nc3ccc(OC)c(OC)c3)c2c1")
27.8
>>> assay_value("CCOC(=O)c1cnc2ccc(OC)cc2c1NCc1ccco1")
22.1
>>> assay_value("Cc1ccc2nc(C)cc(Nc3ccccc3)c2c1")
52.3
>>> assay_value("CCOC(=O)c1cnc2c(OC)cccc2c1NCCCO")
45.8
>>> assay_value("Cc1cccc(Nc2c3c(nc4ccccc24)CCC3)c1")
28.8

Request: Please indicate CC50 recorded for Cc1cc(Nc2cccc(C(F)(F)F)c2)c2cc(Cl)ccc2n1
Response: 60

Request: Please indicate CC50 recorded for c1cncc(CNc2c3ccccc3nc3ccccc23)c1
Response: 28.6

---

# System: EBOV minigenome
# PROTOCOL TEXT: microbe, parasite or virus in culture
# Format: cell-based, Ebola virus
# CONDITION INFO: Zaire ebolavirus, 24 h, read-out: EBOV Inh
Could you label it criterion met if measured inhibition at 25 µM is 60% or higher, and criterion not met otherwise?

>>> cat("CCOC(=O)c1cnc2c(ccc3ccccc32)c1NCc1ccco1")
"criterion not met"
>>> cat("Cc1cc(Nc2ccc(C)c(C)c2)c2cc(Cl)ccc2n1")
"criterion not met"
>>> cat("Cc1cc(Nc2ccc(C)c(Cl)c2)c2cccc(C)c2n1")
"criterion not met"
>>> cat("COC(=O)c1ccc(Nc2cc(C)nc3c(C)cccc23)cc1")
"criterion not met"
>>> cat("c1cncc(CNc2c3ccccc3nc3ccccc23)c1")
"criterion met"

Request: Would you say Cc1ccc2nc3c(c(Nc4ccc(N5CCOCC5)cc4)c2c1)CCC3 shows inhibition at 25 µM at minimum 60%?
Response: criterion not met

Request: Would you say COC(=O)c1ccc(Nc2cc(C)nc3ccc(Cl)cc23)cc1 shows inhibition at 25 µM at minimum 60%?
Response: criterion not met

Request: Would you say c1coc(CNc2c3c(nc4ccccc24)CCC3)c1 shows inhibition at 25 µM at minimum 60%?
Response: criterion not met

---

# PROTOCOL TEXT: in vitro
# CONDITION INFO: RSV CC50
// class assignment uses CC50 with these ranges: 0 = under 30 µM, 1 = from 30 µM up to 50 µM, 2 = 50 µM and over

Examples with answers:
>>> cat("COc1ccc(Nc2cc(C)nc3ccccc23)cc1")
2
>>> cat("CCOC(=O)c1cnc2c(Cl)cccc2c1NCc1ccco1")
1
>>> cat("Cc1ccc2nc(C)cc(Nc3ccccc3)c2c1")
2
>>> cat("CCOc1ccc2nc(C)cc(Nc3ccc(Br)cc3)c2c1")
0

Request: Where would Cc1ccc2nc3c(c(Nc4ccc(O)cc4)c2c1)CCC3 land among the classes by reported CC50?
Response: 1

Request: Where would CCOC(=O)c1cnc2c(OC)cccc2c1NCc1ccccc1 land among the classes by reported CC50?
Response: 1

Request: Where would COC(=O)c1ccc(Nc2c3c(nc4ccccc24)CCC3)cc1 land among the classes by reported CC50?
Response: 2

Request: Where would COc1ccc2nc(C)cc(Nc3ccc(OCc4ccccc4Cl)cc3)c2c1 land among the classes by reported CC50?
Response: 0

Request: Where would Cc1cc(C)c2nc(C)cc(Nc3ccc(OCc4ccccc4)cc3)c2c1 land among the classes by reported CC50?
Response: 0

Request: Where would CCOC(=O)c1cnc2c(C)cc(C)cc2c1NCc1ccco1 land among the classes by reported CC50?
Response: 1

Request: Where would CC(=O)c1cccc(Nc2cc(C)nc3c(C)cc(C)cc23)c1 land among the classes by reported CC50?
Response: 0

Request: Where would COC(=O)c1ccc(Nc2cc(C)nc3cc(Cl)ccc23)cc1 land among the classes by reported CC50?
Response: 2

Request: Where would Cc1cc(Nc2ccc(C)c(C)c2)c2cc(Cl)ccc2n1 land among the classes by reported CC50?
Response: 2

Request: Where would CCOC(=O)c1ccc2ncc(C(=O)OCC)c(NCCCOC(=O)C(Cl)(Cl)Cl)c2c1 land among the classes by reported CC50?
Response: 2
